B1: Azoarcus group I ribozyme (parent)
chain: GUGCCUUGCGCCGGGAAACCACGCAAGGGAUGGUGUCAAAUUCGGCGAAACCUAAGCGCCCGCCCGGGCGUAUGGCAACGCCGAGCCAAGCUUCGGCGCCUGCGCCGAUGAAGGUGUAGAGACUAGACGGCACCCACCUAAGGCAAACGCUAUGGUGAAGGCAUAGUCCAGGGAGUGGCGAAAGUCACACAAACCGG

Variants of: B1
Assay: reverse-splicing fitness (ratio to wild type); higher = more active; in vitro selection; Mg2+ level not given
Exercise: for every item that follows, state its recorded reverse-splicing fitness.
Reply with just the number.

Enquiry: Complete the entry with reverse-splicing fitness for C82G A111C A145U U176G
Return: 0.0645

Enquiry: Provide measured reverse-splicing fitness value, entry: A111C A120G C150A C169G
Return: 0.0242

Enquiry: Specify measured reverse-splicing fitness for C82A A120C A145U C169A .
Return: 0.00925

Enquiry: # return recorded reverse-splicing fitness for entry A111C A120G C150U C169G U176C
Return: 0.0349

Enquiry: Quick one: give measured reverse-splicing fitness for C82G A111U A120C A145U U176C
Return: 0.0279

Enquiry: Return the recorded reverse-splicing fitness value; entry: C82U A111C A120U A145U C169U
Return: 0.00366

Enquiry: Indicate the recorded reverse-splicing fitness value for this variant: C82A C169G U176C
Return: 0.0234

Enquiry: Specify measured reverse-splicing fitness for A111G A120U A145C C150U C169U U176G .
Return: 0.00212

Enquiry: Annotate the variant C82U A120G A145U C169A U176A with its measured reverse-splicing fitness.
Return: 0.00994

Enquiry: Indicate its recorded reverse-splicing fitness; the variant in question is C82U A111C A120G A145U C169U
Return: 0.00765

Enquiry: Please supply the value of reported reverse-splicing fitness for the item C82U A145C C150A U176C
Return: 0.0348

Enquiry: Let me know recorded reverse-splicing fitness for C82U A111U A120C A145C C169G , thanks.
Return: 0.00709

Enquiry: Return reverse-splicing fitness (reported value) for this variant: C82G A111C A120G A145G C150U C169G U176A
Return: 0.0133

Enquiry: Given the variant C82G A145G C150U C169G U176C , write its reported reverse-splicing fitness.
Return: 0.0184

Enquiry: Return reverse-splicing fitness (reported value) for this variant: C82G A145U C150U U176G
Return: 0.0935

Enquiry: Output reverse-splicing fitness of C82G A111C A120U A145C C150G U176G
Return: 0.00221

Enquiry: Retrieve reverse-splicing fitness measured for A111C A120G A145G C150G C169G and print it.
Return: 0.0248

Enquiry: Using the record for C82G A111G A145U C150A C169A U176A , state its measured reverse-splicing fitness.
Return: 0.0154

Enquiry: Consider the variant C150U C169U U176A . State its measured reverse-splicing fitness.
Return: 0.0877

Enquiry: Kindly indicate its recorded reverse-splicing fitness. Item: A111G A120G C150U U176G
Return: 0.00879

Enquiry: For the variant A111G A120C A145U C150G C169U U176G , give its reported reverse-splicing fitness.
Return: 0.00422

Enquiry: Output reverse-splicing fitness of C82A A111U A120G A145U C169G U176G
Return: 0.00437

Enquiry: Tell me reverse-splicing fitness reported for C82A A111U A120G A145C C150U C169A U176A
Return: 0.0127

Enquiry: Return reverse-splicing fitness for the following variant: C82U A111G A120G A145U C150A U176C
Return: 0.013

Enquiry: Using known records, supply reverse-splicing fitness for C82U A120U A145C U176A
Return: 0.0354

Enquiry: Provide measured reverse-splicing fitness value, entry: C82A A111C A145G C150G C169G U176A
Return: 0.00988

Enquiry: State its reverse-splicing fitness for this variant: A111C A120U A145U C169A
Return: 0.00546

Enquiry: Please supply the value of reported reverse-splicing fitness for the item C82U A111U A120U C150A C169U U176C
Return: 0.00379

Enquiry: Report reverse-splicing fitness, nothing else, for this variant: C82A A111U A120G A145C C150G C169A U176A
Return: 0.00838

Enquiry: Provide measured reverse-splicing fitness value, entry: C82A A111C A120C C150A C169G U176C
Return: 0.0202

Enquiry: Give reported reverse-splicing fitness value for C82G A111C A120U A145G C150A C169G
Return: 0.0054

Enquiry: Let me know recorded reverse-splicing fitness for C82U A145G C169A U176G , thanks.
Return: 0.00411

Enquiry: Specify reverse-splicing fitness for C82A A120C C169U and stop.
Return: 0.0186

Enquiry: Annotate the variant C82U A120G C150A C169A U176A with its measured reverse-splicing fitness.
Return: 0.0174

Enquiry: Answer with the recorded reverse-splicing fitness of C82U C150G C169G U176A only.
Return: 0.00631

Enquiry: Name the recorded reverse-splicing fitness of the item C82G A120U A145C C150U C169A in your answer.
Return: 0.00185

Enquiry: State its reverse-splicing fitness: C82U A120C A145U C150G U176C
Return: 0.0134

Enquiry: Output measured reverse-splicing fitness for this item: C82A A111G C150A U176C
Return: 0.0387

Enquiry: # return recorded reverse-splicing fitness for entry C82U A111C A145C C169G U176A
Return: 0.0274

Enquiry: Kindly indicate its recorded reverse-splicing fitness. Item: C82G A111G A145U C150A C169G U176G
Return: 0.00554

Enquiry: Quote reverse-splicing fitness reported for C82A A111U A120C A145C C150G C169A please.
Return: 0.00897

Enquiry: // fetch reverse-splicing fitness given entry A111U A120G A145U C150A C169U U176G
Return: 0.0052

Enquiry: Given C82G A111C A120G A145C C150A U176G , respond with its reverse-splicing fitness.
Return: 0.00463

Enquiry: Consider the variant C82A A111C C150U U176C and give its recorded reverse-splicing fitness.
Return: 0.0554

Enquiry: Dear colleague, please send me the reported reverse-splicing fitness for A120C A145C C150A C169G U176A when you can.
Return: 0.0166

Enquiry: State its reverse-splicing fitness: C82G A120U A145C C150G C169U U176G
Return: 0.00182
